tested on: SK-MEL-28 melanoma; test: NCI-60 one-dose screen, 48 h (100 = growth as untreated, 0 = no growth, -100 = all killed); details: 10 µM
About 83,000 compounds went through this panel and 20% of them were active in at least one assay; those are over-represented in the sample as a whole.
Could you please report measured growth for the items listed next?
Numbers only, in %.

CC(=O)CC(=O)N(C)C = 105

Give me growth for each of these compounds, listed below.
1. O=C1c2ccccc2C(=O)c2c1ccc(C(=O)O)c2[N+](=O)[O-]
2. CCOc1ccc(Br)cc1/C=N\N=C\c1cc(Br)ccc1OCC
3. COc1ccc(Oc2c(I)cc(CC(NC(C)=O)C(=O)O)cc2I)cc1 (configuration not stated)
4. COc1ccc2c(c1)CCc1c-2n[nH]c1-c1[nH]nc2c1CCc1cc(OC)ccc1-2
5. CC(=O)OCC1OC(OC2=C(CC=C(C)C)C(=O)c3ccccc3C2=O)C(OC(C)=O)C(OC(C)=O)C1OC(C)=O (configuration not stated)
6. CCOc1ccc(I)cc1
7. CCOC(=O)c1ccc(NC(=S)P(=O)(c2ccccc2)c2ccccc2)cc1

1: 101; 2: 115; 3: 103; 4: 58.7; 5: 30.3; 6: 107; 7: 106

Can you give me growth for all of these, one by one?
1. O=S(=O)(Cc1ccccc1)c1ccccc1
2. Cc1cc(O)ccc1O
3. CCCCCCCCOC(=O)c1ccccn1
4. CCOC(=O)c1[nH]c(C)c(C(C)=O)c1C

1: 98.5; 2: 108; 3: 107; 4: 97.4

These measurements were taken from PubChem BioAssay (NCI).
